TEST_SYSTEM: human recombinant HDAC6 (Homo sapiens, UniProt Q9UBN7)
Sequence (Q9UBN7 1-1215): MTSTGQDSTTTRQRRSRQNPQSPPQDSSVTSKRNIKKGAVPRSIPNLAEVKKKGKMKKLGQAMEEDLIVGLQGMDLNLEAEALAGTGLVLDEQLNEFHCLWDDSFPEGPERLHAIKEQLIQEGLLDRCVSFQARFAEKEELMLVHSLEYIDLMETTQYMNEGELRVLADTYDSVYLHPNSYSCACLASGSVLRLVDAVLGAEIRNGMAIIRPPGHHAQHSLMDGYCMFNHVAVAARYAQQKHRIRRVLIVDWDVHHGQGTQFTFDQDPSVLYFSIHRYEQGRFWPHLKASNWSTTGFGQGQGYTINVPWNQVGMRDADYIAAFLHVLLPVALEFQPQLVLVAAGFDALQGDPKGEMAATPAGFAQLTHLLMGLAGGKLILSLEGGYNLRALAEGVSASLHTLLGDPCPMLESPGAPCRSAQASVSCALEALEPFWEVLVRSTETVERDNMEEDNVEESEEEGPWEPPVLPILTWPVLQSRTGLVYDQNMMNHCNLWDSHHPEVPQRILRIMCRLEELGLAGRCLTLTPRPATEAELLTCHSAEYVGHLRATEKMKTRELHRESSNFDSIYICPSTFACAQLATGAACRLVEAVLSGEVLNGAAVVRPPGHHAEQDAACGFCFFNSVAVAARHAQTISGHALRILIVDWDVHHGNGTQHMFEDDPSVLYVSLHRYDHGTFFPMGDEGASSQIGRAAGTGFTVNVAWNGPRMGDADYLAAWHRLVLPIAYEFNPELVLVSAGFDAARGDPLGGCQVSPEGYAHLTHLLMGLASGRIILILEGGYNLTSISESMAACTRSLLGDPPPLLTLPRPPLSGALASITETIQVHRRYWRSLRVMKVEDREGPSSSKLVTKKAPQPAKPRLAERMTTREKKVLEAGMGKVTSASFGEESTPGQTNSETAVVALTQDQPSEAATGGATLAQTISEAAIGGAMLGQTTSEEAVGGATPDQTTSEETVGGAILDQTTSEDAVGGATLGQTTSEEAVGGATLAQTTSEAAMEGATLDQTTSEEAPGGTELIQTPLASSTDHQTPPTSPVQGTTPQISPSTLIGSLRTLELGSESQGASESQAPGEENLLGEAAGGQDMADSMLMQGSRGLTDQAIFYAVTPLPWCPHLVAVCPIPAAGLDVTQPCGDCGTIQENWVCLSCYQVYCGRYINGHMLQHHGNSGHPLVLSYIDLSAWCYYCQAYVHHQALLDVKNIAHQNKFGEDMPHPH
MEASUREMENT_NOTES: HDAC6 enzyme activity inhibition assay (HDAC Fluorimetric Drug Discovery Kit)
EXPERIMENTAL_CONDITIONS: same protocol as the HDAC1 enzyme activity test
Please go through the items and note down their IC50.
Answer with a number only, understood to be in nM.

Task: Dear colleague, I am looking for the recorded IC50 of the following compound: CS(=O)(=O)N1CCN(CCCS(=O)(=O)N(Cc2ccc(-c3nnc(C(F)F)o3)cc2)c2ccccc2)CC1 [Compound 11648]
Output: 60

Task: Dear colleague, I am looking for the recorded IC50 of the following compound: CN1CCC(S(=O)(=O)N(Cc2ccc(-c3nnc(C(F)F)o3)cn2)c2ccccc2)CC1 [Compound 11367]
Output: 16

Task: Dear colleague, I am looking for the recorded IC50 of the following compound: O=S(=O)(c1cccnc1)N(Cc1ccc(-c2nnc(C(F)(F)F)o2)cc1F)c1cccc(C(F)(F)F)n1 [Compound 11253]
Output: 666

Task: Dear colleague, I am looking for the recorded IC50 of the following compound: CS(=O)(=O)N(Cc1ccc(-c2nnc(C(F)F)o2)cc1F)c1ccc2ncoc2c1 [Compound 11774]
Output: 66.5
